FYI, the data here is from ChEMBL document CHEMBL3046106.

# Test system: Echinochloa crus-galli
# ASSAY_DETAILS: Herbicidal activity against Echinochloa crus-galli (barnyard grass) at 40 g/hm2 postemergent application after 2 weeks
# Type: functional
VALUE_TYPE: Activity (%)

>>> numeric_result("CCOC(=O)/C=C(\\C)COC(=O)c1cc(Oc2ccc(C(F)(F)F)cc2Cl)ccc1[N+](=O)[O-]")
5
>>> numeric_result("CCOC(=O)/C=C(\\C)OC(=O)c1cc(Oc2ccc(C(F)(F)F)cc2Cl)ccc1[N+](=O)[O-]")
10
>>> numeric_result("CCOC(=O)/C=C(\\C)OC(=O)c1cc(Oc2ccc(C(F)(F)F)cc2Cl)ccc1Cl")
0
>>> numeric_result("C=C(C(=O)OCC)C(C)OC(=O)c1cc(Oc2ccc(C(F)(F)F)cc2Cl)ccc1[N+](=O)[O-] (centres undefined)")
10

----------
# System: Echinochloa crus-galli
# ASSAY_DETAILS: Herbicidal activity against Echinochloa crus-galli (barnyard grass) at 40 g/hm2 postemergent application after 2 weeks
# Format: functional
The entries below are paired with their reported Activity.
VALUE_TYPE: Activity (%)

>>> numeric_result("C=C(COC(=O)c1cc(Oc2ccc(C(F)(F)F)cc2Cl)ccc1Cl)C(=O)OC")
5
>>> numeric_result("COC(=O)/C=C(\\C)OC(=O)c1cc(Oc2ccc(C(F)(F)F)cc2Cl)ccc1[N+](=O)[O-]")
15
>>> numeric_result("CCOC(=O)/C(C)=C(\\C)OC(=O)c1cc(Oc2ccc(C(F)(F)F)cc2Cl)ccc1[N+](=O)[O-]")
10
